Source: paper PMC4336329

target: human ether-à-go-go-related gene (hERG) potassium channel (human, UniProt Q12809); test: primary screen, population patch clamp on CHO cells stably expressing hERG; higher = less effect of the substance;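 also: peak tail current of the secondary pulse compared with the same well before compound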
Sequence (Q12809 whole entry, looked up): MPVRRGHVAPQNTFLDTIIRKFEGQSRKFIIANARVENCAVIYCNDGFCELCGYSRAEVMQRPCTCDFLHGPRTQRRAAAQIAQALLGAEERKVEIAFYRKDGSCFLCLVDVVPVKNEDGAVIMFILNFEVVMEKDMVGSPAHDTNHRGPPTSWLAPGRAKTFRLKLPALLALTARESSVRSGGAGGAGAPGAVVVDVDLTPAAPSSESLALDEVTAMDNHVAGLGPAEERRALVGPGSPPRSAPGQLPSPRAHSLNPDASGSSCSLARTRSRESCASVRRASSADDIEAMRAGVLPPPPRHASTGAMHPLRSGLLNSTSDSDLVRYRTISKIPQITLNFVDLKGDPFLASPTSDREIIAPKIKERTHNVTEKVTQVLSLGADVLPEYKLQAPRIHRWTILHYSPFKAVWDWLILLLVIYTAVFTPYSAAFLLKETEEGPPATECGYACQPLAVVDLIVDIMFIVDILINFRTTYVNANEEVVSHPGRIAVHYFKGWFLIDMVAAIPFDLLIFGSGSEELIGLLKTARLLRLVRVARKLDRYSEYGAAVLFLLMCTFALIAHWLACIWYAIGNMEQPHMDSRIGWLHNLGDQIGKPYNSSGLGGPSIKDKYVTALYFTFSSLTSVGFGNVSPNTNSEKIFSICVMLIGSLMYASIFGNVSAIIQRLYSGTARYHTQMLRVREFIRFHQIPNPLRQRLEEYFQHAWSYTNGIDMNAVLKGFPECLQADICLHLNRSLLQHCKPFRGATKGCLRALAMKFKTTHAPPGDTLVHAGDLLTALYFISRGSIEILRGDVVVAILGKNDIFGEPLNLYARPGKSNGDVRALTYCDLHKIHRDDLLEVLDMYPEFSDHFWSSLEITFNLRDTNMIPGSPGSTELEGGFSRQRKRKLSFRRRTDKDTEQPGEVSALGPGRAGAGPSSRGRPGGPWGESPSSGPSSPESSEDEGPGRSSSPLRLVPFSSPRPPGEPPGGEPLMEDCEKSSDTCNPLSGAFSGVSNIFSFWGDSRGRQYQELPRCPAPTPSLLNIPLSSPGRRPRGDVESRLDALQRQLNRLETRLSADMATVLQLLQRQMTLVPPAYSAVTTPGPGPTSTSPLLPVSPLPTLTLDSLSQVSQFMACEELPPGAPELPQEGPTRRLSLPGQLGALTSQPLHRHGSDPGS
The whole screen tested about 310,000 compounds, of which about 14,000 (4.5%) showed an effect of 50% or more. The effect is printed as a negative number. The sample holds strong results, similar compounds and a random draw of the others, so the mix is not that of the screen.
parameterMeasured: hERG current change (%, negative = inhibition) at 10uM (%)
Reply with just the number (in %).

Short answer on human ether-à-go-go-related gene (hERG) potassium channel (human, UniProt Q12809) for CC(=O)N1c2ccc(S(=O)(=O)NCC3CCC(C(=O)N4CCCCC4)CC3)cc2CC1C (stereo not shown) , hERG current change (%, negative = inhibition) at 10uM: 12.2

Short answer on human ether-à-go-go-related gene (hERG) potassium channel (human, UniProt Q12809) for `CS(=O)(=O)N(CC(=O)N1CCCC1)c1ccc(OCc2ccccc2)cc1` , hERG current change (%, negative = inhibition) at 10uM: -15.7

Short answer on human ether-à-go-go-related gene (hERG) potassium channel (human, UniProt Q12809) for `Cc1ccc(C(=O)Nc2cccc(C(F)(F)F)c2)cc1Nc1ncnc2nc[nH]c12` , hERG current change (%, negative = inhibition) at 10uM: -60.2

Short answer on human ether-à-go-go-related gene (hERG) potassium channel (human, UniProt Q12809) for `Cc1ccc(NC(=O)c2cccc(C(F)(F)F)c2)cc1NC(=O)c1[nH]cnc1C(N)=O` , hERG current change (%, negative = inhibition) at 10uM: -1.07
